- experiment-description: Pharmacokinetic profiling of Example compounds in mouse
- Format: in vivo
- details: mouse, plasma, sc; mice; 10 mg/kg subcutaneous injection; read-out: plasma concentration 8 hours after injection
result-type: concentration at 8 h

Please report the recorded concentration at 8 h for CCn1nc(C)cc1C(=O)N=c1n(C)c2cc(C(N)=O)ccc2n1CCC(CCn1c(=NC(=O)c2cc(C)nn2CC)n(C)c2cc(C(N)=O)ccc21)OCC(=O)NCCOCCOCCOCCOCCC(=O)NCCOCCOCCOCCOCCNc1cccc2c1C(=O)N(C1CCC(=O)NC1=O)C2=O (stereo not shown) . ~100 nM

---

- tested-system: STING (Homo sapiens, UniProt Q86WV6)
- Sequence (Q86WV6 whole entry): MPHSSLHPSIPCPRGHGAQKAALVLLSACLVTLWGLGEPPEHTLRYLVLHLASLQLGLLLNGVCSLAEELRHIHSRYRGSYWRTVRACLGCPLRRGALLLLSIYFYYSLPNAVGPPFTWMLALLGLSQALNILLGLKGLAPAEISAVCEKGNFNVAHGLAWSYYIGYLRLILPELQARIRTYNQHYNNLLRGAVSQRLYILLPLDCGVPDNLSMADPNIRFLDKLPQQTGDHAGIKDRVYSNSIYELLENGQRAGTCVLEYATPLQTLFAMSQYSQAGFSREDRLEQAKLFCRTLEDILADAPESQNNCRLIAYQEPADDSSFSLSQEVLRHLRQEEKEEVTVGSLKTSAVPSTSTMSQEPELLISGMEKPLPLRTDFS
- experiment-description: Western Blot analysis for STING degradation in H596 cells
- Type: cell-based
- details: 24h; reference protein beta-actin
result-type: DC50

Quick one: DC50 for CCn1nc(C)cc1C(=O)N=c1n(C)c2cc(C(N)=O)ccc2n1CCC(CCn1c(=NC(=O)c2cc(C)nn2CC)n(C)c2cc(C(N)=O)ccc21)OCC(=O)NCCOCCOCCOCCOCCC(=O)N(C)CCOCCOCCOCCOCCC(=O)N[C@H](C(=O)N1C[C@H](O)C[C@H]1C(=O)N[C@@H](C)c1ccc(-c2scnc2C)cc1)C(C)(C)C (stereo partly shown) [Example 27] ? < 200 nM
